molecular target: Tyrosine-protein kinase JAK2 (Homo sapiens, UniProt O60674); experiment: Inhibition of N-terminal His-tagged human JAK2 catalytic domain (826 to 1132 end residues) expressed in baculovirus expression system using TK peptide as substrate after 120 mins by HTRF assay
Sequence (O60674 whole entry, the tested form may be a part): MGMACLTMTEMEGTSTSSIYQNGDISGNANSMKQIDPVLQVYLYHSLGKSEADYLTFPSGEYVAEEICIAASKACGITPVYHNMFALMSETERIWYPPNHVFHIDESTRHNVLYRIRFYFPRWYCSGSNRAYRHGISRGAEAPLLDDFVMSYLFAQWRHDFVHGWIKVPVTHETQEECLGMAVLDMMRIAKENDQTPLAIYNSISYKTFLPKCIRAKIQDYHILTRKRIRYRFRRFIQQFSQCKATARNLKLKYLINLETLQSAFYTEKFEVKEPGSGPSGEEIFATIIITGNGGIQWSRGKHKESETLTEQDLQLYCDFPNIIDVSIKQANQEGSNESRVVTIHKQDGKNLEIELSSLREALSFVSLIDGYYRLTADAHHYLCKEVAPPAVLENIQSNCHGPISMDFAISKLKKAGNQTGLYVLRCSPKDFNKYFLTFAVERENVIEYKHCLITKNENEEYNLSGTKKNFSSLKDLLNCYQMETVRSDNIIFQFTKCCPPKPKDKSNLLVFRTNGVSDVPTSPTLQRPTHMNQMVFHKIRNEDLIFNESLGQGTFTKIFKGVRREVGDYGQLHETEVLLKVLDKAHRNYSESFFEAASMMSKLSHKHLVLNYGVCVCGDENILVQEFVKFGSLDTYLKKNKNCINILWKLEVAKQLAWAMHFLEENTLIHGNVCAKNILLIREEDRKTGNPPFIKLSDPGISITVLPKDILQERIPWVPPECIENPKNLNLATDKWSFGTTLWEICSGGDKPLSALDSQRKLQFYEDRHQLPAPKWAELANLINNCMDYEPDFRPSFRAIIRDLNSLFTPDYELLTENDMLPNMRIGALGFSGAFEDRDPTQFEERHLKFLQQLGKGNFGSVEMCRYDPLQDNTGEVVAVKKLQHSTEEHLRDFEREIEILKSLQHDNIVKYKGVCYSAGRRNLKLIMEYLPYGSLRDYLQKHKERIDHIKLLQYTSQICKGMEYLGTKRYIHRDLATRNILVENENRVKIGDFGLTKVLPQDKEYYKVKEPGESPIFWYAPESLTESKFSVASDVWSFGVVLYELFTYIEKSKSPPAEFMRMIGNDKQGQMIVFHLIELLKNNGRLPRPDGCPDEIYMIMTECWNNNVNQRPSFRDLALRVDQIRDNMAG
Observable: IC50

[[record]]
structure = "NC(=O)c1c(N)nn2cc(N3CCC[C@@H]3c3cc(F)ccc3F)cnc12"
result = "> 2 µM"


input: Please report the recorded IC50 for `Nc1nn2cc(N3CCC[C@@H]3c3cc(F)ccc3F)cnc2c1C(=O)Nc1ccc(F)cc1` .
output: > 0.5 µM

----------
biological target: NT-3 growth factor receptor (Homo sapiens, UniProt Q16288)
Sequence (Q16288 whole entry): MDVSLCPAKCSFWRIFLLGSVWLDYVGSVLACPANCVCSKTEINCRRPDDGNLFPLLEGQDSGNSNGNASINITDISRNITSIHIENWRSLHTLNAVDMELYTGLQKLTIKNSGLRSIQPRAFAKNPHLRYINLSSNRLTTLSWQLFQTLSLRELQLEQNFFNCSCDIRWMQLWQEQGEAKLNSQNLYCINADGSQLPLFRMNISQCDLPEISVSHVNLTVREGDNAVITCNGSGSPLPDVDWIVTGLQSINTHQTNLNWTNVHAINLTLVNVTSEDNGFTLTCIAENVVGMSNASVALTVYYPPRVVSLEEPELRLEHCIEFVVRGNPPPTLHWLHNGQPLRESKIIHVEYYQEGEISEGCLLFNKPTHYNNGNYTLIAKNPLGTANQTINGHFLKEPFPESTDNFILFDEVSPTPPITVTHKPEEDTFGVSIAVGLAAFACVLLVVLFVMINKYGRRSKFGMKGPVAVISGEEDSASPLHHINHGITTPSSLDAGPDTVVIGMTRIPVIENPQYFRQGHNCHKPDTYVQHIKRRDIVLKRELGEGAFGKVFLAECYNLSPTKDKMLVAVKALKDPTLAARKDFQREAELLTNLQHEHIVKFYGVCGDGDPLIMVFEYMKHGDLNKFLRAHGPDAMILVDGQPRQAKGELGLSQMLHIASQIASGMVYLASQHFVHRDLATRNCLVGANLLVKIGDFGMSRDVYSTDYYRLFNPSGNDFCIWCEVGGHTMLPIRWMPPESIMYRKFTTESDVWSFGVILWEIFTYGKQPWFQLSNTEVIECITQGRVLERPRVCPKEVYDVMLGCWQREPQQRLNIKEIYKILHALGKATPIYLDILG
Observable: IC50

input: # get_value(readout='IC50', item= `Nc1nn2cc(N3CCC[C@@H]3c3cc(F)ccc3F)cnc2c1C(=O)Nc1ccc(F)cc1` )
output: < 10 nM
